Numbers sourced from patent US20180243298A1.

- Tested system: UniProt Q8NET8
- Protocol text: Calcium flux assay (FLIPR TETRA), recombinant HEK293 cells expressing TRPV3, 2-APB response
- Condition info: 2-APB at its EC80
pIC50: −log10 of the molar value.
Observation type: pIC50

Give me pIC50 for each of these compounds, listed below.
1. COc1ncnc(OC)c1C(=O)Nc1nc(C(F)(F)F)c(-c2cnc(C3CC3)nc2)s1 [Example 203]
2. COc1ncnc(OC)c1C(=O)Nc1nc(C(F)(F)F)c(CN2CCC(OC)CC2)s1 [Example 48]

A:
["> 7.30", "6.30 to 7.00"]

Give me pIC50 for each of these compounds, listed below.
1. COc1ncnc(OC)c1C(=O)Nc1nc(C(F)(F)F)c(C(=O)C(C)(C)C)s1 [Example 124]
2. COc1ncnc(OC)c1C(=O)Nc1nc(-c2ccc(C(F)(F)F)cn2)c(CN2CCCC2)s1 [Example 78]
3. COc1cc(F)ccc1-c1csc(NC(=O)c2c(OC)ncnc2OC)n1 [Example 108]
4. COc1ncnc(OC)c1C(=O)Nc1nc(C(F)(F)F)c(C(C)(O)c2ccccc2)s1 (stereo not drawn) [Example 122]

A:
1. > 7.30
2. 6.30 to 7.00
3. 6.30 to 7.00
4. > 7.30

====

- Tested system: human TRPV3 (Homo sapiens)
- Protocol text: Calcium flux assay (FLIPR TETRA), recombinant HEK293 cells expressing TRPV3, 2-APB response
- Condition info: 2-APB at its EC80
Observation type: IC50

Give me IC50 for each of these compounds, listed below.
1. COc1ncnc(OC)c1C(=O)Nc1nc(C(F)(F)F)c(C#CCO)s1 [Example 12]
2. COc1ncnc(OC)c1C(=O)Nc1nc(C(F)(F)F)c(C2CCCO2)s1 (stereo not shown) [Example 144]
3. COc1ncnc(OC)c1C(=O)Nc1nc(C(F)(F)F)c(-c2cccc(C(F)(F)F)n2)s1 [Example 30]

A:
["100 to 500 nM", "50 to 100 nM", "< 50 nM"]

====

- Tested system: human TRPV3 (Homo sapiens)
- Sequence (Q8NET8 1-790): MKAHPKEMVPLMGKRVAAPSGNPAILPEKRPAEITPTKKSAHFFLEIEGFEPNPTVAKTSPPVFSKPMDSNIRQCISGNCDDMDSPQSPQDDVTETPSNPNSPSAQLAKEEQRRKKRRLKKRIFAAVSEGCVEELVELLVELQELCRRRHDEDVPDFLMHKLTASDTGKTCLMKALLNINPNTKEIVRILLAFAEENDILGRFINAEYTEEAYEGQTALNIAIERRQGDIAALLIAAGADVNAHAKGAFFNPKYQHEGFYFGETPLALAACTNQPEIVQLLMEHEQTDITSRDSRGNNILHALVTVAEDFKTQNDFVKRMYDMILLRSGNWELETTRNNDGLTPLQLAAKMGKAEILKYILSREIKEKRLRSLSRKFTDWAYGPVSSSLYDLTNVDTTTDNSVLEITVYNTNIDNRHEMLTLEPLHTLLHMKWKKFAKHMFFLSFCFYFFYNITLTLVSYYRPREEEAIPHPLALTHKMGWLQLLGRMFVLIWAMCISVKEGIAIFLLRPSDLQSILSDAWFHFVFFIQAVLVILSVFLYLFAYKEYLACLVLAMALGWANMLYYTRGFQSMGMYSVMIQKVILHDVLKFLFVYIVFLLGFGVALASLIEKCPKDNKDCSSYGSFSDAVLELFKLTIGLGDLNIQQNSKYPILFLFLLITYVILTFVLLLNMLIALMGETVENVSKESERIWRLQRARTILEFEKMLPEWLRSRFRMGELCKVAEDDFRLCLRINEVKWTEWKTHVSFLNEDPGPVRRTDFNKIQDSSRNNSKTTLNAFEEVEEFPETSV
- Protocol text: Calcium flux assay (FLIPR TETRA), recombinant HEK293 cells expressing TRPV3, 2-APB response
- Condition info: 2-APB at its EC80
Please go through the items and note down their IC50.

Give me IC50 for each of these molecules, listed below.
1. COc1ncnc(OC)c1C(=O)Nc1nc(C(F)(F)F)c(-c2ccnn2CC2CC2)s1 [Example 188]
2. COc1ncnc(OC)c1C(=O)Nc1nc(C(F)(F)F)c(-c2cccnc2C)s1 [Example 64]
3. COc1ncnc(OC)c1C(=O)Nc1nc(C(F)(F)F)c(/C(=N/O)c2ccccn2)s1 [Example 128]

A:
1. < 50 nM
2. < 50 nM
3. 100 to 500 nM

Give me IC50 for each of these molecules, listed below.
1. COc1ncnc(OC)c1C(=O)Nc1nc(C(F)(F)F)c(-c2ccc(Cl)cc2)s1 [Example 4]
2. COc1ncnc(OC)c1C(=O)Nc1nc(-c2ccc(C(F)(F)F)cn2)c([S+](C)[O-])s1 (stereo not shown) [Example 113]

A:
1. 50 to 100 nM
2. 500 to 1000 nM
